biological target: Potassium channel subfamily K member 3 (Rattus norvegicus) (UniProt O54912); test: inhibition of rat KCNK3 channel, SAR follow-up, selectivity assay for KCNK9 inhibitor project, cell-based, FluxOR thallium flux, CRC set 2 (AID 623912); conditions: KCNK3-expressing cells, FluxOR thallium flux fluorescence
Sequence (O54912 whole entry, looked up): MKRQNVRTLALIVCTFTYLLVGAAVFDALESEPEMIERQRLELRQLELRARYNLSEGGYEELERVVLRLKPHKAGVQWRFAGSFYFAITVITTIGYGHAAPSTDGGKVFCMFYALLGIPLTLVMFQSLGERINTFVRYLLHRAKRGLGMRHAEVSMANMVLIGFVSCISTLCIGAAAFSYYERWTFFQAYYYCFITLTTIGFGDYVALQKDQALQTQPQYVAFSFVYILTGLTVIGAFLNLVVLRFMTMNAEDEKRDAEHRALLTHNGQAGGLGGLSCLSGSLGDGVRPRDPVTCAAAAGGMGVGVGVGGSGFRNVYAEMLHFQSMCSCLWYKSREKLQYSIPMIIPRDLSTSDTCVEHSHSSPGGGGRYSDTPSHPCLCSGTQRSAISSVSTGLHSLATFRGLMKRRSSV
Value Kind: pIC50
The quantity pIC50 is defined as the negative base-10 logarithm of the molar concentration.

>>> df
                                   compound  value_kind  observed_result
0     O=C(Nc1cccc(NC(=O)c2ccsc2)c1)c1ccccc1       pIC50             6.79
1  CCOc1ccccc1NC(=O)c1cccc(NC(=O)c2ccccc2)c1       pIC50             6.92
2  CN(C)c1ccc(C(=O)Nc2cccc(NC(=O)c3ccccc3)c2)cc1       pIC50             6.59
3  O=C(Nc1cccc(NC(=O)c2ccc(F)cc2)c1)c1ccccc1       pIC50             6.51
4  O=C(Nc1cccc(NC(=O)c2cccc(F)c2)c1)c1ccccc1       pIC50             7.35
5  COc1ccccc1NC(=O)c1cccc(NC(=O)CC2CCCC2)c1       pIC50             7.07
6  COc1ccccc1C(=O)Nc1cccc(NC(=O)c2cccc(C)c2)c1       pIC50             7.96
7    CCOc1ccccc1NC(=O)c1cccc(NC(=O)C2CC2)c1       pIC50             5.97

Field pIC50 (entry O=C(Nc1cccc(NC(=O)C2CCCCC2)c1)c1ccccc1 ) reads 7.10

Field pIC50 (entry CCOc1ccccc1NC(=O)c1cccc(NC(=O)C2CCCC2)c1 ) reads 7.17

Field pIC50 (entry Cc1cccc(C(=O)Nc2cccc(NC(=O)c3ccccc3)c2)c1 ) reads 7.02

Field pIC50 (entry Cc1cccc(C(=O)Nc2cccc(NC(=O)c3ccccc3OC(F)(F)F)c2)c1 ) reads 7.55

Field pIC50 (entry COc1cccc(C(=O)Nc2cccc(NC(=O)c3cccc(C)c3)c2)c1 ) reads 7.51

Field pIC50 (entry O=C(Nc1cccc(NC(=O)c2cccc(C(F)(F)F)c2)c1)c1ccccc1 ) reads 6.83

----------
target: Potassium channel subfamily K member 3 (Rattus norvegicus) (UniProt O54912)
pIC50: −log10 of the molar value.
If the reported pIC50 equals or exceeds 7, assign Satisfied. If not, assign Not satisfied.

In [3]: df
Out[3]:
                                   molecule  classification
0  CC(C)Oc1ccccc1C(=O)Nc1cccc(NC(=O)c2ccccc2OC(F)(F)F)c1       Satisfied
1  CCOc1cccc(NC(=O)c2cccc(NC(=O)C3CCCC3)c2)c1   Not satisfied

query: Record S=c1[nH]nc(-c2ccco2)n1CC1CC2CCC1C2 (centres undefined) ; criterion: pIC50 no lower than 7. Met?
result: Not satisfied

query: Record CC(C1CC2CCC1C2)n1c(SCc2ccccc2)nnc1-c1ccco1 (centres undefined) ; criterion: pIC50 no lower than 7. Met?
result: Not satisfied

query: Record COc1ccccc1C(=O)Nc1cccc(NC(=O)c2ccccc2OC(F)(F)F)c1 ; criterion: pIC50 no lower than 7. Met?
result: Satisfied

----------
target: Potassium channel subfamily K member 3 (Rattus norvegicus) (UniProt O54912)
Value Kind: IC50

Recorded results for 2 molecules are shown here.
>>> df
                                   molecule  observed_result
0  CC(C1CC2CCC1C2)n1c(-c2ccc(Cl)cc2)n[nH]c1=S (centres undefined)           240 nM
1    O=C(Nc1cccc(NC(=O)c2ccccc2)c1)c1ccccc1            18 nM

Form field IC50 for item CCOc1ccccc1NC(=O)c1cccc(C(=O)NC2CCCC2)c1 on Potassium channel subfamily K member 3 (Rattus norvegicus) (UniProt O54912): 342 nM

Form field IC50 for item COc1cccc(C(=O)Nc2cccc(NC(=O)c3ccccc3)c2)c1 on Potassium channel subfamily K member 3 (Rattus norvegicus) (UniProt O54912): 212 nM

Form field IC50 for item O=C(Nc1cccc(NC(=O)c2ccccc2Cl)c1)c1ccccc1 on Potassium channel subfamily K member 3 (Rattus norvegicus) (UniProt O54912): 311 nM

Form field IC50 for item COc1cccc(OC)c1C(=O)Nc1cccc(NC(=O)c2cccc(C)c2)c1 on Potassium channel subfamily K member 3 (Rattus norvegicus) (UniProt O54912): 148 nM

----------
target: Potassium channel subfamily K member 3 (Rattus norvegicus) (UniProt O54912)
Value Kind: IC50

                                   compound  observed_result
0  CCOc1ccccc1NC(=O)c1cccc(NC(=O)c2ccccc2C)c1           140 nM

Form field IC50 for item CC(C)n1c(-c2ccco2)n[nH]c1=S on Potassium channel subfamily K member 3 (Rattus norvegicus) (UniProt O54912): 92.2 nM

Form field IC50 for item O=C(Nc1cccc(NC(=O)c2ccccn2)c1)c1ccccc1 on Potassium channel subfamily K member 3 (Rattus norvegicus) (UniProt O54912): 85.8 nM

Form field IC50 for item CC(NC(=O)c1ccco1)C1CC2CCC1C2 (centres undefined) on Potassium channel subfamily K member 3 (Rattus norvegicus) (UniProt O54912): 70 nM

Form field IC50 for item CCOc1ccccc1NC(=O)c1cccc(NC(=O)c2ccc(C(F)(F)F)cc2)c1 on Potassium channel subfamily K member 3 (Rattus norvegicus) (UniProt O54912): 220 nM

Form field IC50 for item CCOc1ccccc1NC(=O)c1cccc(NC(=O)c2ccccc2OC)c1 on Potassium channel subfamily K member 3 (Rattus norvegicus) (UniProt O54912): 6.53 nM

Form field IC50 for item COc1cccc(-c2n[nH]c(=S)n2C(C)C2CC3CCC2C3)c1 (centres undefined) on Potassium channel subfamily K member 3 (Rattus norvegicus) (UniProt O54912): 1290 nM

----------
target: UniProt:O54912; assay: inhibition of rat KCNK3 channel, SAR follow-up, selectivity assay for KCNK9 inhibitor project, cell-based, FluxOR thallium flux, CRC set 2 (AID 623912); details: KCNK3-expressing cells, FluxOR thallium flux fluorescence
Value Kind: pIC50
The quantity pIC50 is defined as the negative base-10 logarithm of the molar concentration.

Recorded results for 2 compounds are shown here.
>>> print(df.to_string())
                                   compound  value_kind  observed_result
0  CC(C1CCCCC1)n1c(-c2ccco2)n[nH]c1=S (stereo not drawn)       pIC50             7.36
1  COc1ccccc1-c1n[nH]c(=S)n1C(C)C1CC2CCC1C2 (stereo not drawn)       pIC50             6.99

Shift focus to the following entry.
Field pIC50 (entry O=C(Nc1cccc(NC(=O)c2ccccc2C(F)(F)F)c1)c1ccccc1 ) reads 6.89

----------
Form field: pIC50 (one value per entry).
molecular target: Potassium channel subfamily K member 3 (Rattus norvegicus)
The quantity pIC50 is defined as the negative base-10 logarithm of the molar concentration.

Recorded results for 10 compounds are shown here.
In [3]: df
Out[3]:
                                   compound  observed_result
0  Cc1cccc(C(=O)Nc2cccc(NC(=O)c3ccccc3C)c2)c1             7.04
1  CCOc1ccccc1NC(=O)c1cccc(NC(=O)c2cccc(Cl)c2)c1             7.41
2  Cc1ccc(-c2n[nH]c(=S)n2C(C)C2CC3CCC2C3)cc1 (configuration not stated)             6.11
3  CCOc1ccccc1C(=O)Nc1cccc(NC(=O)c2cccc(C)c2)c1             8.13
4  CC(C1CC2CCC1C2)n1c(-c2ccco2)nnc1C(F)(F)F (configuration not stated)             5.93
5  CCOc1ccccc1NC(=O)c1cccc(NC(=O)c2ccc(Cl)cc2)c1             6.86
6  Cc1cccc(C(=O)Nc2cccc(NC(=O)c3ccc(N(C)C)cc3)c2)c1             6.84
7     O=C(Nc1cccc(NC(=O)c2ccco2)c1)c1ccccc1             7.44
8   O=C(Nc1ccccc1Cl)c1cccc(NC(=O)C2CCCC2)c1             6.70
9  CCOc1ccccc1NC(=O)c1cccc(NC(=O)c2cccc(C)c2)c1             7.77

Shift focus to the following entry.
Field pIC50 (entry CC(C1CC2CCC1C2)n1c(-c2cccs2)n[nH]c1=S (configuration not stated) ) reads 7.74

----------
Record set of IC50 for target or system Potassium channel subfamily K member 3 (Rattus norvegicus) (UniProt O54912).

                                   compound                          target_or_system  observed_result
0  COc1ccccc1NC(=O)c1cccc(NC(=O)C2CCCCC2)c1  Potassium channel subfamily K member 3 (Rattus norvegicus) (UniProt O54912)            86 nM
1  CC(C1CC2CCC1C2)n1c(-c2cccn2C)n[nH]c1=S (stereo unspecified)  Potassium channel subfamily K member 3 (Rattus norvegicus) (UniProt O54912)          1080 nM
2  CCOc1ccccc1C(=O)Nc1cccc(NC(=O)C2CCCC2)c1  Potassium channel subfamily K member 3 (Rattus norvegicus) (UniProt O54912)           108 nM
3  CC(C)c1ccccc1C(=O)Nc1cccc(NC(=O)c2ccccc2OC(F)(F)F)c1  Potassium channel subfamily K member 3 (Rattus norvegicus) (UniProt O54912)            11 nM
4  CCOc1ccccc1NC(=O)c1cccc(NC(=O)c2ccccc2Cl)c1  Potassium channel subfamily K member 3 (Rattus norvegicus) (UniProt O54912)          83.9 nM
5  CC(C1CC2CCC1C2)n1c(-c2ccco2)n[nH]c1=S (stereo unspecified)  Potassium channel subfamily K member 3 (Rattus norvegicus) (UniProt O54912)           341 nM
6  CCOc1ccccc1NC(=O)c1cccc(NC(=O)c2ccc(C)cc2)c1  Potassium channel subfamily K member 3 (Rattus norvegicus) (UniProt O54912)           134 nM
7  CC(c1cccc2ccccc12)n1c(-c2ccco2)n[nH]c1=S (stereo unspecified)  Potassium channel subfamily K member 3 (Rattus norvegicus) (UniProt O54912)           561 nM

Form field IC50 for item CC(c1ccccc1)n1c(-c2ccco2)n[nH]c1=S (stereo unspecified) on Potassium channel subfamily K member 3 (Rattus norvegicus) (UniProt O54912): 567 nM

Form field IC50 for item CCOc1ccccc1NC(=O)c1cccc(NC(=O)C2CCCCC2)c1 on Potassium channel subfamily K member 3 (Rattus norvegicus) (UniProt O54912): 66.9 nM

Form field IC50 for item Cc1ccccc1-c1n[nH]c(=S)n1C(C)C1CC2CCC1C2 (stereo unspecified) on Potassium channel subfamily K member 3 (Rattus norvegicus) (UniProt O54912): 912 nM
